# pIC50 annotations
target: RORγt ligand-binding domain (RORγt-LBD) (Homo sapiens, UniProt P51449); construct: 20 nM recombinantly expressed RORγ-LBD fused to GST; experiment: Time-resolved FRET (TR-FRET) RORγt coactivator assay; settings: GST-RORγ-LBD, biotinylated RIP140 peptide, 2 hours; read-out: IC50, coactivator-RORγt binding inhibition (TR-FRET)
pIC50: −log10 of the molar value.

Would you please look over these solved cases?
> print(dat)
                                   compound                             target.entity  measured.endpoint  result
1  COc1ccc(C(NC(=O)Cc2cc(N3CCN(C(C)=O)CC3)ccc2C)c2ccc(C)o2)c(N2CCCCCC2)c1 (stereo not shown)  RORγt ligand-binding domain (RORγt-LBD) (Homo sapiens, UniProt P51449)              pIC50  > 7.00
2  CC(=O)N1CCN(c2ccc(F)c(CC(=O)NC(c3ccccc3)c3ccc(C)cc3N3CCCCC3)c2)CC1 (stereo not shown)  RORγt ligand-binding domain (RORγt-LBD) (Homo sapiens, UniProt P51449)              pIC50  > 7.00

Report measured pIC50 on RORγt ligand-binding domain (RORγt-LBD) (Homo sapiens, UniProt P51449); entry: Cc1ccc(C(NC(=O)Cc2cccc(N3CCN(C(=O)C(F)(F)F)CC3)c2)c2ccc(C)o2)c(N2CCCCC2)c1 (stereo not shown)
6.00 to 7.00

Report measured pIC50 on RORγt ligand-binding domain (RORγt-LBD) (Homo sapiens, UniProt P51449); entry: Cc1ccc(C(NC(=O)Cc2cccc(N3CCN(C)CC3)c2)c2ccc(C)o2)c(N2CCCCC2)c1 (stereo not shown)
> 7.00

Report measured pIC50 on RORγt ligand-binding domain (RORγt-LBD) (Homo sapiens, UniProt P51449); entry: CC(=O)N1CCN(c2ccc(CC(=O)NC(CC(C)C)c3ccccc3N3CCCCC3)cc2)CC1 (stereo not shown)
6.00 to 7.00

Report measured pIC50 on RORγt ligand-binding domain (RORγt-LBD) (Homo sapiens, UniProt P51449); entry: Cc1ccc(C(NC(=O)Cc2ccc(N3CCC(S(C)(=O)=O)CC3)cc2)c2ccc(C)o2)c(N2CCCCC2)c1 (stereo not shown)
> 7.00

Report measured pIC50 on RORγt ligand-binding domain (RORγt-LBD) (Homo sapiens, UniProt P51449); entry: COc1ccc(C(NC(=O)Cc2cc(N3CCN(C(C)=O)CC3)ccc2F)c2ccccc2)c(N2CCCCCC2)c1 (stereo not shown)
> 7.00

====

# IC50 annotations
Biological target: human RORγt (Homo sapiens)
Sequence (P51449 1-497 isoform P51449-2): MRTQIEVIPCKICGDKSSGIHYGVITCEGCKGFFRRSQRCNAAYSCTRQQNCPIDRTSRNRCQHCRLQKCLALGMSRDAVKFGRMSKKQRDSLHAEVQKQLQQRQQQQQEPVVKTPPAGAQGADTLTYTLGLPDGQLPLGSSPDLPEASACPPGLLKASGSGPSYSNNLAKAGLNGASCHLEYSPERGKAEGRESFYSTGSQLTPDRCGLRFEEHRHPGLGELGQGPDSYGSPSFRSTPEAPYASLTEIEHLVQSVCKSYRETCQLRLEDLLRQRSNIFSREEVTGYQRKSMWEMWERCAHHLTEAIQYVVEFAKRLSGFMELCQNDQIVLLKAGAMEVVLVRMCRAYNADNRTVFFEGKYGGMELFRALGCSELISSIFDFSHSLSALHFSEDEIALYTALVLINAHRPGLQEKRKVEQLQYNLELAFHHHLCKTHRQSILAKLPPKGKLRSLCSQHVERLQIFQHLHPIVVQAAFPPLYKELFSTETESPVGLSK
Experiment: IL-17 secretion from EL4 murine lymphoma cells overexpressing human RORγt
Format: cell-based
Details: human RORγt-transfected EL4 cells, PMA and ionomycin stimulation; read-out: IC50, inhibition of IL-17 secretion

Would you please look over these solved cases?
> print(dat)
                                   compound               target.entity  measured.endpoint          result
1  CC(=O)N1CCN(c2ccc(CC(=O)NC(c3ccccc3)c3ccccc3N3CCCCC3)cc2)CC1 (centres unmarked)  human RORγt (Homo sapiens)               IC50  100 to 1000 nM
2  CC(=O)N1CCN(c2ccc(C)c(CC(=O)NC(c3ccc(C)o3)c3ccc(C)cc3N3CCCCC3)c2)CC1 (centres unmarked)  human RORγt (Homo sapiens)               IC50        < 100 nM
3  CC(=O)N1CCN(c2cccc(CC(=O)NC(c3ccc(C)o3)c3ccc(C)cc3N3CCCCC3)c2)CC1 (centres unmarked)  human RORγt (Homo sapiens)               IC50        < 100 nM
4  CC(=O)N1CCN(c2ccc(C)c(CC(=O)NC(c3ccccc3)c3ccc(C)cc3N3CCCC3)c2)CC1 (centres unmarked)  human RORγt (Homo sapiens)               IC50  100 to 1000 nM

Give IC50 for Cc1ccc(C(NC(=O)Cc2cc(N3CCN(S(C)(=O)=O)CC3)ccc2F)c2ccc(C)o2)c(N2CCCCC2)c1 (centres unmarked)
100 to 1000 nM

====

Biological target: human RORγt (Homo sapiens)
Sequence (P51449 1-497 isoform P51449-2): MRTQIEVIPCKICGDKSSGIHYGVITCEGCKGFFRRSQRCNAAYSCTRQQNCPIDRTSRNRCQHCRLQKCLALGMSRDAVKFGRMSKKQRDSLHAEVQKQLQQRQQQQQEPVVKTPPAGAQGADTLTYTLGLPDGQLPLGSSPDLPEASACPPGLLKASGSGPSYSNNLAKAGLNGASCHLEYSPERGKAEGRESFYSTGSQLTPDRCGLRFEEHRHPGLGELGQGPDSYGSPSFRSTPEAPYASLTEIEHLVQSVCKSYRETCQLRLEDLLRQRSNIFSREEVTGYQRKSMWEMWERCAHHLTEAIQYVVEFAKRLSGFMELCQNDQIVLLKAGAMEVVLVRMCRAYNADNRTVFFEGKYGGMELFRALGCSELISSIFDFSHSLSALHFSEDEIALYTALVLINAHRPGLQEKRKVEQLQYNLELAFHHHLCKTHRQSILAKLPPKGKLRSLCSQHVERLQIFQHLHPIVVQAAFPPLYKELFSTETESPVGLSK
Experiment: RORE Luciferase/RORγt transactivation assay
Format: cell-based
Design: the full-length cDNA of human RORγt; V5-His (encoded by the vector); expressed in transfected cells; host or cells: COS-7 (monkey kidney)
Conditions: COS-7 cells transfected with human IL-17 promoter luciferase reporter and RORγt plasmid, 20 h; read-out: IC50, RORγt activity inhibition (luciferase reporter)
# IC50 annotations

Would you please look over these solved cases?
> print(dat)
                                   compound               target.entity  measured.endpoint            result
1  COc1ccc(C(NC(=O)Cc2cc(N3CCN(C(C)=O)CC3)ccc2F)c2ccc(C)o2)c(N2CCCCCC2)c1 (stereo not shown)  human RORγt (Homo sapiens)               IC50    100 to 1000 nM
2  COc1ccc(C(NC(=O)Cc2cc(N3CCN(C(C)=O)CC3)ccc2F)c2ccccc2)c(N2CCCCCC2)c1 (stereo not shown)  human RORγt (Homo sapiens)               IC50    100 to 1000 nM
3  Cc1ccc(C(NC(=O)Cc2cc(N3CCNCC3)ccc2C)c2ccccc2)c(N2CCCCC2)c1 (stereo not shown)  human RORγt (Homo sapiens)               IC50  1000 to 10000 nM

Report measured IC50 on human RORγt (Homo sapiens); entry: Cc1ccc(C(NC(=O)Cc2cccc(N3CCN(S(N)(=O)=O)CC3)c2)c2ccc(C)o2)c(N2CCCCC2)c1 (stereo not shown)
100 to 1000 nM

====

Molecular target: RORγt ligand-binding domain (RORγt-LBD) (Homo sapiens, UniProt P51449)
Construct: 20 nM recombinantly expressed RORγ-LBD fused to GST
Test: Time-resolved FRET (TR-FRET) RORγt coactivator assay
Conditions: GST-RORγ-LBD, biotinylated RIP140 peptide, 2 hours; read-out: IC50, coactivator-RORγt binding inhibition (TR-FRET)
Text: Time-resolved FRET (TR-FRET) RORγt coactivator assay was used to identify RORγ modulator compounds with ligand-dependent coactivator displacement. […] For reduction of background from compound fluorescence, TR-FRET method makes use of generic fluorophore labels and time resolved detection. […]
pIC50: −log10 of the molar value.
MEASURED_ENDPOINT: pIC50

Would you please look over these solved cases?
> print(dat)
                                   molecule                             target.entity  measured.endpoint        result
1  CC(=O)N1CCN(c2ccc(F)c(CC(=O)NC(c3ccc(C)o3)c3ccc(C)cc3C)c2)CC1 (centres unmarked) [Cpd.12]  RORγt ligand-binding domain (RORγt-LBD) (Homo sapiens, UniProt P51449)              pIC50        > 7.00
2  Cc1ccc(C(NC(=O)Cc2cc(N3CCNCC3)ccc2C)c2ccccc2)c(N2CCCCC2)c1 (centres unmarked) [Cpd.6]  RORγt ligand-binding domain (RORγt-LBD) (Homo sapiens, UniProt P51449)              pIC50  5.00 to 6.00
3  CC(=O)N1CCN(c2ccc(C)c(CC(=O)NC(c3ccccc3)c3ccc(C)cc3N3CCCC3)c2)CC1 (centres unmarked) [Cpd.3]  RORγt ligand-binding domain (RORγt-LBD) (Homo sapiens, UniProt P51449)              pIC50        > 7.00
4  Cc1ccc(C(NC(=O)Cc2cc(N3CCN(C(=O)OC(C)(C)C)CC3)ccc2C)c2ccc(C)o2)c(N2CCCCC2)c1 (centres unmarked) [Cpd.8]  RORγt ligand-binding domain (RORγt-LBD) (Homo sapiens, UniProt P51449)              pIC50  5.00 to 6.00
5  CC(=O)N1CCN(c2ccc(C)c(CC(=O)NC(c3ccc(C)o3)c3ccc(C)cc3N3CCCCC3)c2)CC1 (centres unmarked) [Cpd.10]  RORγt ligand-binding domain (RORγt-LBD) (Homo sapiens, UniProt P51449)              pIC50        > 7.00

Give pIC50 for Cc1ccc(C(NC(=O)Cc2cc(N3CCNCC3)ccc2C)c2ccc(C)o2)c(N2CCCCC2)c1 (centres unmarked) [Cpd.9]
6.00 to 7.00

Give pIC50 for COc1ccc(C(NC(=O)Cc2cc(N3CCN(C(C)=O)CC3)ccc2F)c2ccc(C)o2)c(N2CCCCCC2)c1 (centres unmarked) [Cpd.14]
> 7.00

Give pIC50 for Cc1ccc(C(NC(=O)Cc2cc(N3CCNCC3)ccc2F)c2ccccc2)c(N2CCCCC2)c1 (centres unmarked) [Cpd.7]
5.00 to 6.00
